Entry source: patent US20080090734A1

Test system: A. baumannii clinical isolate LAC 16
Assay: Antibiotic susceptibility profile
Type: cell-based, Acinetobacter baumannii
Set-up: key: Resistance; Intermediate; Susceptible

molecule: CC(C)(O/N=C(\C(=O)N[C@@H]1C(=O)N2C(C(=O)[O-])=C(C[n+]3ccccc3)CS[C@H]12)c1csc(N)n1)C(=O)O
targetOfAssay: A. baumannii clinical isolate LAC 16
Antibiotic susceptibility: R
--
molecule: COc1c(N2CCNC(C)C2)c(F)cc2c(=O)c(C(=O)O)cn(C3CC3)c12 (stereo not drawn)
targetOfAssay: A. baumannii clinical isolate LAC 16
Antibiotic susceptibility: R
--
molecule: C[C@@H](O)[C@H]1C(=O)N2C(C(=O)O)=C(S[C@@H]3CN[C@H](C(=O)N(C)C)C3)[C@H](C)[C@H]12
targetOfAssay: A. baumannii clinical isolate LAC 16
Antibiotic susceptibility: S
